# Test system: lambsquarters (Chenopodium album)
# assay_method_text: Test C preemergence
# Type: in vivo
# condition_notes: 16 g ai/ha, scale 0 to 100, 0 is no effect, 100 is complete control
# Excerpt: […]
Could you please report measured Plant response rating, Lambsquarters for the items listed next?
Enter the number alone.

Query: Return reported Plant response rating, Lambsquarters; argument: O=c1cccc(Oc2ncc(Cl)cn2)n1-c1ccc(C(F)(F)F)cn1
Reply: 15

Query: Return reported Plant response rating, Lambsquarters; argument: O=c1cccc(Oc2ncc(Cl)cn2)n1-c1ccc(C(F)(F)F)cc1
Reply: 35

Query: Return reported Plant response rating, Lambsquarters; argument: O=c1cccc(Oc2ncc(Cl)cn2)n1-c1ncc(Cl)cn1
Reply: 40

Query: Return reported Plant response rating, Lambsquarters; argument: O=c1cccc(Oc2ncc(Cl)cn2)n1-c1ccc(Cl)cc1
Reply: 30
